Readout kind: melting point (°C)

# count of solved cases: 4
INSERT INTO results (compound, readout_value) VALUES
  ('C[C@H]1O[C@@H](n2cc(/C=C/Br)c(=O)[nH]c2=O)C[C@@H]1Cl [8.2]', 134),
  ('CO[C@H]1C[C@H](n2cc(/C=C/Br)c(=O)[nH]c2=O)O[C@@H]1CCl [2.1.2]', 145),
  ('CC(=O)O[C@H]1C[C@H](n2cc(/C=C/Br)c(=O)[nH]c2=O)O[C@@H]1CC#N [10.3]', 96),
  ('O=c1[nH]c(=O)n([C@@H]2O[C@H](CBr)[C@@H](O)[C@H]2O)cc1/C=C/Br [2.3]', 201);

a. CC(=O)O[C@H]1C[C@H](n2cc(/C=C/Br)c(=O)[nH]c2=O)O[C@@H]1C(O)F (stereo partly shown) [2.2.1]
b. O=c1[nH]c(=O)n([C@H]2C[C@H](Cl)[C@@H](CCl)O2)cc1/C=C/Br [3.3]
Given the listed items, does a or b have the lesser reported melting point? Answer by stating the label of the chosen item. a

I. O=c1[nH]c(=O)n([C@H]2C[C@H](Cl)[C@@H](CBr)O2)cc1/C=C/Br [3.5]
II. CO[C@H]1C[C@H](n2cc(/C=C/Br)c(=O)n(C)c2=O)O[C@@H]1CF [2.1.3]
III. O=c1[nH]c(=O)n([C@@H]2O[C@H](CBr)[C@@H](O)[C@H]2F)cc1/C=C/Br [5.2]
Would you mind ranking these compounds by ascending melting point? Respond with the label ranking, as requested. II, I, III
(II: 95 °C, I: 149 °C, III: 223 °C)

---

The following molecules are listed with their measured melting point values.

Here are 5 molecules together with their reported answers.
INSERT INTO results (molecule, readout_value) VALUES
  ('[N-]=[N+]=NC[C@H]1O[C@@H](n2cc(/C=C/Br)c(=O)[nH]c2=O)C[C@@H]1Cl [3.5.3]', '58 to 60 °C'),
  ('N#CC[C@H]1O[C@@H](n2cc(/C=C/Br)c(=O)[nH]c2=O)C[C@@H]1O [compound 10]', '177 °C (dec.)'),
  ('[N-]=[N+]=N[C@H]1C[C@H](n2cc(/C=C/Br)c(=O)[nH]c2=O)O[C@@H]1CCl [3.5.4]', '124 to 125 °C'),
  ('O=c1[nH]c(=O)n([C@H]2C[C@H](F)[C@@H](CF)O2)cc1/C=C/Br [3.1]', '177 to 180 °C'),
  ('O=c1[nH]c(=O)n([C@H]2C=C[C@@H](CO)O2)cc1/C=C/Br [4.1]', '> 250 °C (dec.)');

Query (molecule): CCCCOC(=O)N[C@H](C(=O)O[C@H]1C[C@H](n2cc(/C=C/Br)c(=O)[nH]c2=O)O[C@@H]1CCl)C(C)C [2.2.2.5] ; field requested: melting point 87 to 88 °C

// melting point lookup, key: O=c1[nH]c(=O)n([C@H]2C[C@H](O)[C@@H](CF)O2)cc1/C=C/Br [2.1.1] 208 °C

# lookup: melting point of O=c1[nH]c(=O)n([C@H]2C[C@H](Br)[C@@H](CBr)O2)cc1/C=C/Br [3.6] 153 °C

What value of melting point has been reported for the following molecule? O=c1[nH]c(=O)n([C@H]2C=C[C@@H](CBr)O2)cc1/C=C/Br [4.2] > 150 °C

Record request: melting point value, item CO[C@H]1C[C@H](n2cc(/C=C/Br)c(=O)[nH]c2=O)O[C@@H]1CF [2.1.4] 177 °C

---

Each record here notes measured melting point.

Here are 8 compounds together with their reported answers.
INSERT INTO measurements (compound, readout_kind, readout_value) VALUES
  ('CC(=O)N[C@H]1C[C@H](n2cc(/C=C/Br)c(=O)[nH]c2=O)O[C@@H]1CBr', 'melting point', '178 to 180 °C'),
  ('O=c1[nH]c(=O)n([C@@H]2O[C@H](CO)[C@@H](O)[C@H]2F)cc1/C=C/Br', 'melting point', '182 °C'),
  ('CC(C)[C@H](NC(=O)OC(C)(C)C)C(=O)OC[C@H]1O[C@@H](n2cc(/C=C/Br)c(=O)[nH]c2=O)C[C@@H]1Cl', 'melting point', '75 to 76 °C'),
  ('CC(C)[C@H](NC(=O)OC(C)(C)C)C(=O)N[C@H](C(=O)O[C@H]1C[C@H](n2cc(/C=C/Br)c(=O)[nH]c2=O)O[C@@H]1CN=[N+]=[N-])C(C)C', 'melting point', '133 to 135 °C'),
  ('O=c1[nH]c(=O)n([C@H]2C[C@H](F)[C@@H](CCl)O2)cc1/C=C/Br', 'melting point', '203 °C'),
  ('CC(C)[C@H](NC(=O)OC(C)(C)C)C(=O)N[C@H](C(=O)O[C@H]1C[C@H](n2cc(/C=C/Br)c(=O)[nH]c2=O)O[C@@H]1CCl)C(C)C', 'melting point', '114 to 116 °C'),
  ('CC(C)[C@H](NC(=O)OC(C)(C)C)C(=O)N[C@H](C(=O)OC[C@H]1O[C@@H](n2cc(/C=C/Br)c(=O)[nH]c2=O)C[C@@H]1N=[N+]=[N-])C(C)C', 'melting point', '95 to 97 °C'),
  ('C[C@H]1O[C@@H](n2cc(/C=C/Br)c(=O)[nH]c2=O)C[C@@H]1O [8.1, 2′,5′-dideoxy-5-(E)-bromovinyluridine]', 'melting point', '174 °C (dec.)');

For the next question, use this compound.
Which melting point reading was recorded for the compound `CC(C)[C@H](NC(=O)OC(C)(C)C)C(=O)N[C@H](C(=O)OC[C@H]1O[C@@H](n2cc(/C=C/Br)c(=O)[nH]c2=O)C[C@@H]1Cl)C(C)C` ? 102 to 103 °C

Values compiled from patent US8492537B2.
